Recorded values, source patent US4281009A.

- protocol-summary: Acute toxicity test (LD50, Litchfield-Wilcoxon), mice
- measurement-context: mouse, in vivo, ip, female, intraperitoneal
observed-property: LD50 at 72 h

compound="O=C1NC(=O)C(c2ccccc2)(c2ccc(O)cc2)N1 (stereo not drawn) [Compound 7, 5-(4-Hydroxyphenyl)-5-phenylhydantoin]" observed_result="> 5000 mg/kg"
compound="CCC1(c2ccc(O)cc2)NC(=O)NC1=O (stereo not drawn) [Compound 24, 5-Ethyl-5-(4-hydroxyphenyl)hydantoin]" observed_result="> 5000 mg/kg"
compound="COc1cc(C2(c3ccc(OC)c(OC)c3OC)NC(=O)NC2=O)cc(OC)c1OC (stereo not drawn)" observed_result="> 5000 mg/kg"
compound=CCCOc1ccccc1C1(c2ccccc2OCCC)NC(=O)NC1=O observed_result="> 5000 mg/kg"
compound="COc1ccc(C2(c3ccc(OC)c(Cl)c3)NC(=O)NC2=O)cc1 (stereo not drawn)" observed_result="920 mg/kg"
compound=CCCOc1ccc(C2(c3ccc(OCCC)cc3)NC(=O)NC2=O)cc1 observed_result="3460 mg/kg"
compound="O=C1NC(=O)C(c2ccc(O)c(O)c2)(c2ccc(O)c(O)c2)N1 [Compound 17, 5,5-Bis(3,4-dihydroxyphenyl)hydantoin]" observed_result="1800 mg/kg"
compound="O=C1NC(=O)C(c2ccc(O)cc2O)(c2ccc(O)cc2O)N1 [Compound 34, 5,5-Bis(2,4-dihydroxyphenyl)hydantoin]" observed_result="1200 mg/kg"
compound=COc1ccc(C2(c3ccc(OC)cc3OC)NC(=O)NC2=O)c(OC)c1 observed_result="> 5000 mg/kg"
compound="COc1ccc(C2(c3ccc(OC)c(C)c3)NC(=O)NC2=O)cc1 (stereo not drawn)" observed_result="> 5000 mg/kg"
compound="COc1ccc(C2(c3ccc(OC)c(OC)c3)NC(=O)NC2=O)cc1 (stereo not drawn)" observed_result="> 5000 mg/kg"
compound="O=C1NC(=O)C(c2ccc(O)cc2)(c2ccc(O)c(O)c2)N1 (stereo not drawn)" observed_result="1200 mg/kg"
compound=COc1cc(C2(c3cc(OC)c(OC)c(OC)c3)NC(=O)NC2=O)cc(OC)c1OC observed_result="> 5000 mg/kg"
compound="O=C1NC(=O)C(c2ccccc2O)(c2ccccc2O)N1 [Compound 29, 5,5-Bis(2-hydroxyphenyl)hydantoin]" observed_result="1600 mg/kg"
compound="O=C1NC(=O)C(c2ccccc2)(c2ccccc2O)N1 (stereo not drawn) [Compound 6, 5-(2-Hydroxyphenyl)-5-phenylhydantoin]" observed_result="> 5000 mg/kg"
compound=COc1ccc(C2(c3ccc(OC)c(OC)c3)NC(=O)NC2=O)cc1OC observed_result="> 5000 mg/kg"
compound="O=C1NC(=O)C(c2ccc(O)cc2)(c2cccs2)N1 (stereo not drawn)" observed_result="2000 to 3000 mg/kg"
compound="COc1ccc(C2(c3ccc(O)cc3)NC(=O)NC2=O)cc1 (stereo not drawn)" observed_result="3000 mg/kg"
compound=COc1ccc(C2(c3ccc(OC)c(CO)c3)NC(=O)NC2=O)cc1CO observed_result="> 5000 mg/kg"
compound="O=C1NC(=O)C(c2ccc(O)cc2)(c2ccc(O)cc2)N1 [Compound 4, 5,5-Bis(4-hydroxyphenyl)hydantoin]" observed_result="980 mg/kg"
compound="O=C1NC(=O)C(c2ccc(O)cc2)(c2ccc(O)c(Cl)c2)N1 (stereo not drawn)" observed_result="> 5000 mg/kg"
compound=O=C1NC(=O)C(c2ccccc2OCc2ccccc2)(c2ccccc2OCc2ccccc2)N1 observed_result="> 5000 mg/kg"
compound="O=C1NC(=O)C(c2cccc(O)c2)(c2cccc(O)c2)N1 [Compound 8, 5,5-Bis(3-hydroxyphenyl)hydantoin]" observed_result="1270 mg/kg"
compound="O=C1NC(=O)C(c2ccc(O)cc2)(c2ccc(O)cc2O)N1 (stereo not drawn)" observed_result="1200 mg/kg"
compound="COc1ccc(C2(c3ccc(OC)cc3OC)NC(=O)NC2=O)cc1 (stereo not drawn)" observed_result="> 5000 mg/kg"
compound=Cc1ccc(C2(c3ccc(C)cc3)NC(=O)NC2=O)cc1 observed_result="> 5000 mg/kg"
compound="Cc1cc(C2(c3ccc(O)cc3)NC(=O)NC2=O)ccc1O (stereo not drawn)" observed_result="> 5000 mg/kg"

====

inhibition in vivo at 100 mg/kg listing for selected compounds.
- System: normal mice and SART stress mice
- protocol-summary: Analgesic effect, acetic acid writhing method
- Format: in vivo
- measurement-context: Mus musculus, sc, SART stress mice; 100 mg/Kg subcutaneously
observed-property: inhibition in vivo at 100 mg/kg (%)

compound="O=C1NC(=O)C(c2ccc(O)cc2)(c2cccs2)N1 (stereo not drawn)" observed_result=20.9
compound="O=C1NC(=O)C(c2ccc(O)cc2)(c2ccc(O)cc2)N1 [Compound 4, 5,5-Bis(4-hydroxyphenyl)hydantoin]" observed_result=33.6
compound="O=C1NC(=O)C(c2ccc(O)cc2)(c2ccc(O)c(O)c2)N1 (stereo not drawn)" observed_result=36.2
